test system: HOP-62; assay: NCI tumour cell line growth inhibition, 48 h
Activity calls are given as the source filed them. No stated cut-off is given here; in the data, active = GI50 up to about 1.1 µM and inactive = higher.
result.type: GI50

[ask] Return GI50 (reported value) for this compound: COC(=O)C1=C(OC(=O)/C(=C/c2ccc(Cl)cc2)c2ccc(Cl)cc2)C(C(=O)OC)[C@]2(O)[C@@H](C(=O)OC)[C@H]1C[C@@H](c1ccccc1)[C@@H]2C(=O)OC (stereo partly drawn)
[reply] 32.7 µM (inactive)

[ask] Return GI50 (reported value) for this compound: CC1C2CC(CC(=O)N2)C1(C)C (stereo not drawn)
[reply] > 100 µM (inactive)

[ask] Return GI50 (reported value) for this compound: `c1ccc2c[n+](CCCC[n+]3ccc4ccccc4c3)ccc2c1`
[reply] > 100 µM (inactive)

[ask] Return GI50 (reported value) for this compound: COc1cc(C(=O)OC2CC34CCNC35CC(OC5(OC)C2O)c2cc3c(cc24)OCO3)ccc1O (stereo not drawn)
[reply] > 100 µM (inactive)

[ask] Return GI50 (reported value) for this compound: `COC(=O)c1c(O)ccc2c1c1c(n2Cc2cc(OC)cc(OC)c2)C(=O)c2ccccc2C1=O`
[reply] 9.29 µM (inactive)

* * *

system: T47D; test: NCI tumour cell line growth inhibition, 48 h
Activity calls are given as the source filed them. Cut-off read from the data, not from the text of the source: active = GI50 up to about 1.1 µM and inactive = higher.
Reported GI50 values for the following compounds.

Some solved entries appear below for comparison.
Cc1cc(Cl)ccc1NC(=O)/C(Cc1nc2ccc(C(=O)c3ccccc3)cc2nc1O)=N/NC(=O)c1ccncc1 :: > 100 µM (inactive)
COc1cc(/C=N\O)nc(-c2ccccn2)c1 :: 1.18 µM (inactive)
CC(C)(C)c1ccc(O)c(C[N+](C)(C)C)c1 :: > 100 µM (inactive)

[ask] Return GI50 (reported value) for this compound: `Cc1c(C)c2c(c(N)c1C#N)C(=O)N(Cc1ccc(S(N)(=O)=O)cc1)C2=O`
[reply] > 39.2 µM (inactive)

[ask] Return GI50 (reported value) for this compound: `Cc1ccc2c(=O)c(C(=O)NNC(=S)NC3CCCCC3)c[nH]c2n1`
[reply] 46.9 µM (inactive)

[ask] Return GI50 (reported value) for this compound: O=C1CC(c2ccccc2Cl)Oc2ccccc21 (stereo not given)
[reply] 43 µM (inactive)

[ask] Return GI50 (reported value) for this compound: `O=C1c2cc3c(cc2CC12Cc1cc4c(cc1C2=O)CCC4)CCC3`
[reply] > 100 µM (inactive)

[ask] Return GI50 (reported value) for this compound: `CC(=O)Oc1cc(Cl)c(C)c2c1[C@H]1CC[C@]3(C)[C@@H](OC(C)=O)CC[C@H]3[C@@H]1CC2`
[reply] 83.2 µM (inactive)

[ask] Return GI50 (reported value) for this compound: `CC(=O)c1sc2n(C)c(=O)c3ccccc3[n+]2c1C`
[reply] > 100 µM (inactive)

[ask] Return GI50 (reported value) for this compound: `O=C(c1ccccc1)n1[nH]c(=O)n(-c2ccc(Cl)cc2)c1=O`
[reply] > 100 µM (inactive)

* * *

Reported GI50 values for the following compounds.
test system: SF-268; test: NCI tumour cell line growth inhibition, 48 h
Active and inactive are the calls of the source. No stated cut-off is given here; in the data, active = GI50 up to about 1.1 µM and inactive = higher.

Some solved entries appear below for comparison.
CC(CO)CCNc1ncnc2c1ncn2CCC(=O)O (stereo unspecified) :: > 100 µM (inactive)
CC(C)(C)OC(=O)NC(Cc1ccc(OCc2ccccc2)cn1)C(=O)NCc1ccccc1 (stereo unspecified) :: 23.6 µM (inactive)
COc1ccc2nc3ccc(OC)cc3c(SCCCl)c2c1 :: 12 µM (inactive)

[ask] Return GI50 (reported value) for this compound: COc1ccc2c3c1OC1C(OC)(OC)C=C[C@@]4(Br)[C@@H](C2)N(CC2CC2)CC[C@]314 (stereo partly specified)
[reply] 32.1 µM (inactive)

* * *

test system: NCI-H226; test: NCI tumour cell line growth inhibition, 48 h
The source made the active and inactive calls. Rule as the data show it: active = GI50 up to about 1.1 µM and inactive = higher.
result.type: GI50

Some solved entries appear below for comparison.
COc1ccc2nc3ccc(OC)cc3c(SCCCl)c2c1 :: > 48.4 µM (inactive)
COC(=O)/C(C#N)=C1\NC(=O)CC(c2ccccc2)C1C#N (configuration not stated) :: > 100 µM (inactive)
Nn1c(=O)n(Cc2ccccc2)n(-c2ccccc2)c1=O :: > 100 µM (inactive)
O=C1CC(=O)NC(NNS(=O)(=O)c2ccccc2)=N1 :: > 100 µM (inactive)

[ask] Return GI50 (reported value) for this compound: `Cc1ccc(Oc2ccc(C)cc2[N+](=O)[O-])cc1`
[reply] 57.5 µM (inactive)

[ask] Return GI50 (reported value) for this compound: `O=C(NNCc1ccco1)c1cc2ccccc2[nH]1`
[reply] > 100 µM (inactive)

[ask] Return GI50 (reported value) for this compound: `Br[Se]c1ccccn1`
[reply] 17.5 µM (inactive)

[ask] Return GI50 (reported value) for this compound: `CC(=O)N1CC(C)(C)c2c(C)c(O)c(C)c(C)c21`
[reply] > 100 µM (inactive)

[ask] Return GI50 (reported value) for this compound: COC(=O)C1=C(c2cc(OC)c(OC)c(OC)c2)OC(c2cc(OC)c(OC)c(OC)c2)C1 (configuration not stated)
[reply] 17.1 µM (inactive)

[ask] Return GI50 (reported value) for this compound: COc1ccccc1C1C2=C(COC2=O)Oc2cc3c(cc21)OCO3 (configuration not stated)
[reply] 5.31 µM (inactive)

[ask] Return GI50 (reported value) for this compound: O=c1ccn(C2OC(CO)C(P(=O)(O)O)C2O)c(=O)[nH]1 (configuration not stated)
[reply] > 100 µM (inactive)

[ask] Return GI50 (reported value) for this compound: `Cc1cnc2nc(-c3ccc(F)cc3)cc(O)c2c1`
[reply] 27.1 µM (inactive)

* * *

tested on: Malme-3M; experiment: NCI tumour cell line growth inhibition, 48 h
Activity calls are given as the source filed them. Rule as the data show it: active = GI50 up to about 1.1 µM and inactive = higher.
Reported GI50 values for the following compounds.

Some solved entries appear below for comparison.
NC1=NC(=O)/C(=C/c2ccccc2[N+](=O)[O-])C(N)=N1 :: > 100 µM (inactive)
N#Cc1c2c(c(Cl)n3c1nc1ccccc13)CCCC2 :: 13.2 µM (inactive)
CC(=O)c1ccc(NC(=O)/C(CC(=O)c2sc(-c3cccnc3)nc2C)=N/NC(N)=O)cc1 :: > 100 µM (inactive)
CC(=O)CC1(CBr)Nc2ccc([N+](=O)[O-])cc2NC1=O (stereo not given) :: 92.3 µM (inactive)

Now look at this entry.
[ask] Return GI50 (reported value) for this compound: `O=[N+]([O-])c1ccc(Nc2cccc3c4cc[nH]c(-c5ccccc5)c-4nc23)c([N+](=O)[O-])c1`
[reply] > 100 µM (inactive)

* * *

Reported GI50 values for the following molecules.
test system: NCI-H522; experiment: NCI tumour cell line growth inhibition, 48 h
The source made the active and inactive calls. No stated cut-off is given here; in the data, active = GI50 up to about 1.1 µM and inactive = higher.

Some solved entries appear below for comparison.
CC(=O)OCc1c2ccccc2c(C)c2c1cc(F)c1ccccc12 :: 12.2 µM (inactive)
CCCCCC(/C=N/Nc1ccccc1)C(O)(C(F)(F)F)C(F)(F)F (stereo not given) :: > 100 µM (inactive)
COC(=O)C1=C(OC(=O)/C(=C/c2ccc(Cl)cc2)c2ccc(Cl)cc2)C(C(=O)OC)[C@]2(O)[C@@H](C(=O)OC)[C@H]1C[C@@H](c1ccccc1)[C@@H]2C(=O)OC (stereo not given in full) :: 3.85 µM (inactive)

[ask] Return GI50 (reported value) for this molecule: CC(NP(=O)(c1ccccc1)c1ccccc1)c1ccccc1 (stereo not given)
[reply] > 100 µM (inactive)

[ask] Return GI50 (reported value) for this molecule: `O=C1CC(=O)c2c(N3CCCC3)sc(N3CCCC3)c21`
[reply] 57.4 µM (inactive)

* * *

test system: NCI-H23; assay: NCI tumour cell line growth inhibition, 48 h
Calls of active or inactive are those of the source. Cut-off read from the data, not from the text of the source: active = GI50 up to about 1.1 µM and inactive = higher.
In this exercise, the only acceptable responses are active, inactive

COc1ccc2c3c1O[C@H]1C(O)CCC4(O)[C@@H](C2)NCC[C@]314 (some centres not stated) :: inactive
O=C1CSC(c2c[nH]c3ccccc23)N1c1ccccc1[N+](=O)[O-] (configuration not stated) :: inactive
COc1cc(/C=N\O)nc(-c2ccccn2)c1 :: active
Cc1cc(S(=O)(=O)N/C(=C(\C#N)C(=O)c2ccccc2)[n+]2ccc(N(C)C)cc2)c([S-])cc1Cl :: inactive
COC(=O)C1(C)CC2C(C)(CCC3(C)C4=CC=C5C(=CC(=O)C(O)=C5C)C4(C)CCC23C)CC1O (configuration not stated) :: inactive

Now for a further compound.
[ask] Please share the test call associated with `C=C(c1ccccc1)[C@@]1(O)CCCC[C@H]1NC(c1ccccc1)c1ccccc1` .
[reply] inactive

* * *

tested on: RXF 393; experiment: NCI tumour cell line growth inhibition, 48 h
Activity calls are given as the source filed them. Cut-off read from the data, not from the text of the source: active = GI50 up to about 1.1 µM and inactive = higher.
In this exercise, the only acceptable responses are active, inactive

Observe how each entry below is paired with its result.
N#Cc1c2c(c(Cl)n3c1nc1ccccc13)CCCC2 :: active
Cc1cc(S(=O)(=O)N=C2N(Cc3ccccc3)CCN2Cc2ccccc2)c(S)cc1Cl :: inactive
Cc1ccc(/C=C2/N/C(=N\N=C/C(O)C(O)C(O)C(O)CO)NC2=O)cc1 (stereo not given) :: inactive
CCCCCCC(=O)OC[n+]1ccc(-c2c(COC(=O)NC(C)C)c(COC(=O)NC(C)C)c3n2CCC3)cc1 :: inactive

Now for a further molecule.
[ask] Please share the test call associated with `CNC(=O)OCc1nccc2c(C)c3[nH]c4ccc(OC)cc4c3cc12` .
[reply] inactive
